The measured values listed here are drawn from paper PMC11080051.

Measured On: T1, DNA polymerase theta polymerase domain (PolQM1), WT (Homo sapiens, UniProt O75417 1792-2590)
T1 sequence: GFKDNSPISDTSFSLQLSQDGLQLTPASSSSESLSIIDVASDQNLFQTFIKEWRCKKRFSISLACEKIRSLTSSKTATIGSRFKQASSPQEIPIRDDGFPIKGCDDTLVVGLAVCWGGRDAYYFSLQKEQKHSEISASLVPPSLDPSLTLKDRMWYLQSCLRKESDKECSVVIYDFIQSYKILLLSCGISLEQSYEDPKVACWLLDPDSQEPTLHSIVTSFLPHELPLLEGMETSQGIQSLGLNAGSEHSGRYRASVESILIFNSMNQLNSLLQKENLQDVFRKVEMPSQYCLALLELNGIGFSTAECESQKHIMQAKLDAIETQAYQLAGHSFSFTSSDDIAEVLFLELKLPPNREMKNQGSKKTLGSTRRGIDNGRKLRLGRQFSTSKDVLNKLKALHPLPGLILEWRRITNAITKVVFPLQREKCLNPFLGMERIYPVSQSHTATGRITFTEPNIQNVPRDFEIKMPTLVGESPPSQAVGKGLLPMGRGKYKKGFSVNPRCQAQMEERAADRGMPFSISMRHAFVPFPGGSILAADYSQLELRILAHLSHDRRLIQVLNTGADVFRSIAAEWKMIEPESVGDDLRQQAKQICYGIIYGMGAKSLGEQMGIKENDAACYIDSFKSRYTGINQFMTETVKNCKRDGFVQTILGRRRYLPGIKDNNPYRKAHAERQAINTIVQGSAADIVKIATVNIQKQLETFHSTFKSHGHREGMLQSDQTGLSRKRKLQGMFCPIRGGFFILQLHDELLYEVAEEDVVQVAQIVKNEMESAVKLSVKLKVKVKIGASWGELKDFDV
Protocol: EMSA; 6 mM MgCl2; EMSA: 10 mM Tris-HCl pH 7.5, 6 mM MgCl2, 100 mM NaCl, 10% glycerol, 0.1% NP-40; 10 nM DNA, 0-1000 nM protein, 1 h at room temperature; 6% native PAGE
Recorded Conditions: protein: recombinant; tags: 6xHis-SUMO, cleaved off; label: 5'-6-FAM on primer; 22 bp; 5' overhang 18 nt on template; 5' overhang 3 nt (TTT) on primer
Measured Quantity: pKd
API: returns pKd as number; meaning -log10 of concentration in mol/L.

Looking for the measured pKd of 25/40 primer-template duplex (CG template) (dsDNA) DNA 1: TTTGCCTTGACCATGTAACAGAGAG DNA 2: TCTCTTCTCTCACTCACGCTCTCTGTTACATGGTCAAGGC , can you help?
7.74
